- assayInfo: APR_HepG2_StressKinase_1hr: Apredica 1-hour HepG2 Assay for Stress Kinase (AID 2282906)
- assaySetup: HepG2 stress kinase (phospho-c-Jun) imaging, actives raise or lower the signal
Active and inactive are the calls of the source. Rule for the calls: active = hit-call score of the fitted dose curve at least 0.9, where 1 is the maximum; inactive = score below 0.9.
Outcomes you can answer with include only these: true (1) (active), false (0) (inactive)

CCSC(=O)N(CC(C)C)CC(C)C : false (0)

Identify the outcome logged in this assay for the molecule shown: Oc1ccc(C(c2ccc(O)cc2)C(Cl)(Cl)Cl)cc1
true (1)

Identify the outcome logged in this assay for the molecule shown: CCOC(=O)[C@H](C)Oc1ccc(Oc2nc3ccc(Cl)cc3o2)cc1
false (0)

Identify the outcome logged in this assay for the molecule shown: COC(=O)c1ccccc1C(=O)O
false (0)
